Assay: NCI Yeast Anticancer Drug Screen. Data for the mec2-1 strain (AID 157)
Conditions: S. cerevisiae mec2-1 strain, at 100.0 µM
This is part of a sample that, as a whole, favours compounds with a hit. Of some 79,000 tested, about 15% had one in any assay. The source made the active and inactive calls. No stated cut-off is given here; in the data, active means growth inhibition above about 70%; inactive means the rest.
Just give me one of these, please: yes for active, no for inactive

Worked set:
{"compound": "CC1(Cl)CC(O)C2(CC1Br)C1(C)OC1C1OC1(Br)C2(C)C (stereo unspecified)", "class-name": "yes"}
{"compound": "O=C1C=CC(=Nc2ccc3c(c2)Cc2cc(NC(=O)C(F)(F)F)ccc2-3)O1", "class-name": "yes"}
{"compound": "OCC(Cn1cncn1)(c1ccc(F)cc1F)n1cncn1 (stereo unspecified)", "class-name": "no"}

# outcome recorded in this test, key = `N#CN=Nc1cc(Cl)c(N=NC#N)cc1Cl` yes

// next record `NCCNc1ccc(NCCN)c2c1C(=O)c1c(O)ccc(O)c1C2=O` no

---

Experiment: NCI Yeast Anticancer Drug Screen. Data for the mgt1 strain (AID 153)
Details: S. cerevisiae mgt1 mutant growth inhibition; at 3.7 µM; stronger effect = higher value
Compounds without any hit were thinned out: in the full panel of roughly 79,000, 15% have a hit.
Could you please report measured growth inhibition for the items listed next?
Give bare numbers, in %.

{"compound": "CC1(Cl)CC(O)C2(CC1Br)C1(C)OC1C1OC1(Br)C2(C)C (configuration not stated)", "unit-abbrev": "%", "growth inhibition": -14}
{"compound": "OC1CCCc2c1cc1ccc3cccc4ccc2c1c34 (configuration not stated)", "unit-abbrev": "%", "growth inhibition": -8}
{"compound": "Cn1c(N)nc(-c2ccc(Cl)cc2)c1SSc1c(-c2ccc(Cl)cc2)nc(N)n1C", "unit-abbrev": "%", "growth inhibition": 0}
{"compound": "CC(=O)OCCOCNC(=S)N/N=C(\\C)c1cnccn1", "unit-abbrev": "%", "growth inhibition": 9}
{"compound": "O=C1c2ccccc2-c2n[nH]c3cccc1c23", "unit-abbrev": "%", "growth inhibition": -32}
{"compound": "CN(C)CCn1c2c3ccccc3ccc2c2oc(=O)c3ccccc3c21", "unit-abbrev": "%", "growth inhibition": 10}
{"compound": "O=C1C2C=CC1C1C(=O)OC(=O)C21 (configuration not stated)", "unit-abbrev": "%", "growth inhibition": -13}
{"compound": "CC(O)C(O)C(O)C(/C=N\\Nc1ccccc1)=N/Nc1ccccc1 (configuration not stated)", "unit-abbrev": "%", "growth inhibition": 9}

Record growth inhibition for all entries; do not skip any.
1. O=C1Nc2ccccc2/C1=C/COc1ccccc1
2. O=Nc1cccnc1N=O

1: 1; 2: 25

Record growth inhibition for all entries; do not skip any.
1. Brc1ccc(-c2cc3c(cc2C2SCCS2)OCO3)cc1
2. CC(=O)Cc1ccc[cH-]1.[Fe+2].c1cc[cH-]c1

1. -45
2. 11

---

Assay: NCI Yeast Anticancer Drug Screen. Data for the mlh1 rad18 strain (AID 175)
Conditions: S. cerevisiae mlh1 rad18 strain growth inhibition; at 50.0 µM; stronger effect = higher value
This is part of a sample that, as a whole, favours compounds with a hit. Of some 79,000 tested, about 15% had one in any assay. Active and inactive are the calls of the source. Cut-off read from the data, not from the text of the source: active = growth inhibition above about 70%; inactive = the rest.
Could you please report measured growth inhibition for the items listed next?

These solved cases illustrate the format of a correct answer.
{"compound": "O=C1C2CC[C@@H]3C(=O)C(Cl)(Cl)[C@@H]3CCC2C1(Cl)Cl (stereo partly specified)", "growth inhibition": "79.2% (active)"}
{"compound": "FC(F)(F)c1nc2nc(Cl)c(Cl)nc2n1CCCN1CCOCC1", "growth inhibition": "64.7% (inactive)"}
{"compound": "Brc1ccc(-c2cc3c(cc2C2SCCS2)OCO3)cc1", "growth inhibition": "33.5% (inactive)"}
{"compound": "NCCNc1ccc(NCCN)c2c1C(=O)c1c(O)ccc(O)c1C2=O", "growth inhibition": "46% (inactive)"}
{"compound": "CCCCCCCCNC(=O)C1=C(C)NC(C)=C(C(=O)NCCCCCCCC)C1", "growth inhibition": "-23.8% (inactive)"}

Record growth inhibition for all entries; do not skip any.
1. CCCCCCCCCC/C=C\C(=O)O
2. CCOC(=O)C(NC(=O)c1ccccc1)(N1CCN(c2cc3c(cc2F)c(=O)c(C(=O)O)cn3C2CC2)CC1)C(F)(F)F (stereo unspecified)
3. Cc1cc(O)cc(O)c1N=Nc1ccc([N+](=O)[O-])cc1

73.8% (active)
-1.95% (inactive)
55.8% (inactive)

Record growth inhibition for all entries; do not skip any.
1. CN(C)CCOc1ccc2c(c1)C/C(=C/c1ncc([N+](=O)[O-])n1C)C2=O
2. OC1CCCc2c1cc1ccc3cccc4ccc2c1c34 (stereo unspecified)
3. O=[N+]([O-])CC(SCc1ccccc1)c1ccc2c(c1)OCO2 (stereo unspecified)
4. COC(=O)C1=C(C)NC(C)=C(C(=O)OCCCN2CCC(c3ccccc3)(c3ccccc3)CC2)C1c1cccc([N+](=O)[O-])c1 (stereo unspecified)
5. COC(=O)CSSCc1ccc([N+](=O)[O-])cc1
6. COc1cc(C2SCC(=O)N2c2nnc(C(F)(F)F)s2)cc(OC)c1OC (stereo unspecified)
7. [N-]=N[N+]#I1OC(C(F)(F)F)(C(F)(F)F)c2ccccc21
8. O=C([O][Sn]([O]C(=O)c1ccccc1)([c]1ccccc1)[c]1ccccc1)c1ccccc1

89.3% (active)
94.8% (active)
89.2% (active)
92.7% (active)
94.4% (active)
0.35% (inactive)
92% (active)
50.1% (inactive)

Record growth inhibition for all entries; do not skip any.
1. N#CN=Nc1cc(Cl)c(N=NC#N)cc1Cl
2. CSC(=S)N/N=C(\C)c1cccc(C)n1
3. COc1ccc(/C=C2\SC(=S)N(/C=C/c3nc4ccccc4[nH]c3=O)C2=O)cc1OC
4. O=C(CC(=O)n1nc(-c2ccccc2)c(N=Nc2ccccc2C(=O)O)c1-c1ccccc1)Nc1ccc(Cl)cc1
5. CC[C@@]1(O)C(=O)OCc2c1cc1n(c2=O)Cc2cc3c(N)cccc3nc2-1

38.2% (inactive)
99.2% (active)
61.6% (inactive)
36% (inactive)
5.1% (inactive)
